- System: A549 (EGFR WT) NSCLC cells
- protocol_text: Cell proliferation assay (MTS cell viability)
- Type: cell-based
- measurement_context: Homo sapiens, 72 h; A549 cells, 3 days of exposure, MTS
pIC50: −log10 of the molar value.

molecule | pIC50
COc1cc(N2CCC(N(C)C)CC2)ccc1Nc1ncc(C(F)(F)F)c(Nc2ccccc2C(=O)C(=O)N2CCOCC2)n1 [Example 45] | < 5.52
COc1cc(N2CCN(C)CC2)ccc1Nc1ncc(Cl)c(Nc2ccccc2C(=O)C(=O)N(C)C)n1 [Example 46] | < 5.52
COc1cc(N2CCN(C(C)=O)CC2)ccc1Nc1ncc(Cl)c(Nc2ccccc2C(=O)C(=O)N(C)C)n1 [Example 53] | < 5.52
C=CC(=O)Nc1ccc(OC)c(Nc2ncc(Cl)c(Nc3ccccc3C(=O)C(=O)N(C)C)n2)c1 [Example 67] | 5.80
COc1cc(N2CCN(C(C)=O)CC2)ccc1Nc1ncc(Cl)c(Nc2ccccc2C(=O)C(=O)N2CCOCC2)n1 [Example 42] | < 5.52
COc1cc(Nc2ncc(Cl)c(Nc3ccccc3C(=O)C(=O)N(C)C)n2)ccc1F [Example 62] | < 5.52
C=CC(=O)Nc1cc(Nc2ncc(Cl)c(Nc3ccccc3C(=O)C(=O)NC)n2)c(F)cc1OC [Example 68] | < 5.52
C=CC(=O)Nc1cc(Nc2ncc(Cl)c(Nc3ccccc3C(=O)C(=O)N(C)C)n2)c(F)cc1OC [Example 69] | < 5.52
C/C=C/C(=O)Nc1ccc(OC)c(Nc2ncc(Cl)c(Nc3ccccc3C(=O)C(=O)N(C)C)n2)c1 [Example 70] | 5.86

Source listed as patent US10059688B2.
